Assay: binders from COS7 lysate, DM2A8 probe, primary screen, torsin A project, cell lysate, small-molecule microarray, fluorescence 635/667 (AID 1065)
Conditions: higher = more signal, COS7 lysate expressing mutant human TOR1A
Value type: composite z-score

// known answers, use as guide
Compound: C=CCC(OC(C)=O)[C@@H]1[C@@H](N(Cc2ccc(-c3cccc(C(F)(F)F)c3)o2)C(=O)c2ccc(-c3ccccc3)cc2)c2cc(OCCCO)ccc2N1C(=O)c1ccc2ccccc2n1 (some centres undefined)
composite z-score: -0.246
--
Compound: COc1ccc([Si](C)(C)[C@@H]2[C@@H](CC(=O)N(CCO)Cc3ccccc3)O[C@]3(C(=O)N(Cc4cccc(N5CCOC5=O)c4)c4ccccc43)[C@H]2C)cc1
composite z-score: 1.02
--
Compound: CCCCC(O)C1C=CC2C(=O)N(c3ccccc3)C(=O)C2N1Nc1ccc(C(C)C)cc1 (centres undefined)
composite z-score: -0.534
--
Compound: COc1cccc(/C=C/C=O)c1
composite z-score: 0.187
--
Compound: C=CCOC(=O)[C@H]1[C@@H]2C(=O)O[C@@H](c3ccccc3)[C@@H](c3ccccc3)N2[C@@H](c2ccc(OCCOC(=O)[C@@H]3C[C@@H]4C(=O)N5CCC[C@H]5C(=O)N4[C@@H]3c3ccc(O)cc3)cc2)[C@]12C(=O)Nc1ccc(I)cc12
composite z-score: -0.123

Query: Complete the entry with composite z-score for CC(C)(C)OC(=O)CC[C@@]1(C(=O)NCc2ccccc2)N=C(c2ccc(OCCCO)cc2)O[C@@H]1c1ccccc1N=[N+]=[N-]
Reply: 0.559

Query: Complete the entry with composite z-score for O=C1OCC=C[C@H]2OC34C=CCN(Cc5ccccc5)C(=O)[C@H]3N(CCCCCCO)C(=O)[C@@H]4[C@@H]12 (some centres undefined)
Reply: -0.443

Query: Complete the entry with composite z-score for COC(=O)[C@@]1(Cc2ccc(OC)cc2)[C@@H]2C(=CC(=O)[C@H]2CC(=O)C(=O)N(C)C)CN1C(=O)c1ccccc1
Reply: -0.262

Query: Complete the entry with composite z-score for COc1ccc([Si](C)(C)[C@H]2[C@H](CCO)O[C@@]3(C(=O)N(Cc4cccc(N5C(=O)COc6ccccc65)c4)c4ccccc43)[C@@H]2C)cc1
Reply: 0.15

Query: Complete the entry with composite z-score for [N-]=[N+]=Nc1ccccc1C[C@]1(C(N)=O)N=C(c2ccc(OCCCO)cc2)O[C@H]1c1ccccc1N=[N+]=[N-]
Reply: 0.902

Query: Complete the entry with composite z-score for COc1ccc([Si](C)(C)[C@@H]2[C@@H](CC(=O)N3Cc4ccccc4C[C@H]3CO)O[C@]3(C(=O)N(C)c4ccccc43)[C@H]2C)cc1
Reply: 0.56

Query: Complete the entry with composite z-score for CC(C)Cc1ccc(CN2CC[C@@H](NC(=O)Nc3ccccc3)C2)cc1
Reply: -0.0461

Query: Complete the entry with composite z-score for CC(C)C(=C=CC[C@H](O)c1cccc(OCCO)c1)C[C@H](O)c1cc(Cl)cc(Cl)c1O
Reply: -0.178

Query: Complete the entry with composite z-score for COc1ccc(CN(C2=CC[C@@]3(C(N)=O)C(=O)C(Cl)=C(Cl)C(=O)[C@@]3(C#N)C2)S(=O)(=O)c2ccc(Br)cc2)cc1
Reply: -0.0483

----------
Assay: binders of probe aFSTL3 on microarray, primary screen, stem cell growth factor project, biochemical, small-molecule microarray, fluorescence 635/667 (AID 1064);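 note: measures binding of the biotinylated anti-FSTL3 antibody to printed compounds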
Conditions: higher = more signal
Value type: composite z-score
Write the number on its own, no unit after it.

// known answers, use as guide
Molecule: COc1cc(OC)c(C(O)C2C=CC3C(=O)N(c4ccccc4)C(=O)C3N2Nc2ccccc2)cc1Br (stereo not given)
composite z-score: 0.0555
--
Molecule: CCC(CC)C(O)C1C=CC2C(=O)N(c3ccccc3)C(=O)C2N1Nc1ccc(C(C)C)cc1 (stereo not given)
composite z-score: 0.251
--
Molecule: C=C(COC)/C(=C/C[C@H](OC(C)=O)c1ccc(OCCO)cc1)c1cc(C(=O)OC)ccc1OC
composite z-score: -0.391
--
Molecule: COCCOC(=O)N1C(=O)[C@@]2(c3cc(C#CC4=CCCCC4)ccc31)[C@H](c1ccc(OCCO)cc1)N1[C@H](c3ccccc3)[C@H](c3ccccc3)OC(=O)[C@H]1[C@@H]2C(=O)NC[C@H](O)c1ccccc1
composite z-score: 0.82
--
Molecule: O=C1OCC=C[C@H]2OC34C=CCN(c5ccc(Cl)cc5)C(=O)[C@H]3N(CCO)C(=O)[C@@H]4[C@@H]12 (stereo not given in full)
composite z-score: 0.601
--
Molecule: COC(=O)[C@@]1(Cc2ccc(OC)cc2)[C@H]2c3cc(C(=O)N4CCCC4)n(Cc4cccc5ccccc45)c3C[C@H]2CN1C(=O)c1ccccc1
composite z-score: 0.176
--
Molecule: CN1C(=O)C2C=CC(C(O)COCc3ccccc3)N(N(c3ccccc3)c3ccccc3)C2C1=O (stereo not given)
composite z-score: 0.0199
--
Molecule: C[C@]1(C(=O)NC2CC2)c2ccccc2C(=O)N(Cc2ccccc2)[C@H]1c1ccc(CO)cc1
composite z-score: 0.942

Query: Complete the entry with composite z-score for O=C1O[C@@H](c2ccccc2)[C@@H](c2ccccc2)N2[C@@H](c3ccccc3OCCO)[C@]3(C(=O)Nc4ccc(C#CCCO)cc43)[C@@H](C(=O)N3CCCCCCC3)[C@H]12
Reply: 4.01

Query: Complete the entry with composite z-score for COC1OC[C@]2(C)[C@H]3C4=C(CN2C(=O)OC(C)(C)C)[C@H](C)C(CO)C(CO)C4CC[C@@H]13 (stereo not given in full)
Reply: 1.99

Query: Complete the entry with composite z-score for O=c1n(-c2ccccc2)c(=O)n2n1CC(COc1ccccc1)=C([C@H](O)CCc1ccccc1)[C@@H]2CO
Reply: -0.333

Query: Complete the entry with composite z-score for COCC1=C2[C@@H](CCc3ccccc3)OB(O)C[C@@H]2[C@@H]2C(=O)C=CC(=O)[C@@H]2C1
Reply: -0.265

Query: Complete the entry with composite z-score for Cc1ccc(S[C@]2(C(=O)NCC(F)(F)F)CC(=O)N(C3CCCCC3)[C@@H]2c2ccc(CO)cc2I)cc1
Reply: -0.203

Query: Complete the entry with composite z-score for O=C1C2C=CC(C(O)c3ccc(Br)cc3)N(Nc3ccccc3F)C2C(=O)N1c1ccccc1 (stereo not given)
Reply: -0.436

Query: Complete the entry with composite z-score for CN(C)CCCNC(=O)[C@@H]1c2ccccc2C(=O)N(Cc2ccccc2Cl)[C@H]1c1ccc(CO)cc1
Reply: -0.126

----------
Assay: small-molecule microarray binders of probe aNog, primary screen, biochemical, biotinylated probe, 635/667 nm fluorescence (AID 1115);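 note: probe is biotinylated aNog protein used at 0.15 µg/mL for 1 h at 4 C; z-score combines 667 nm fluorescence of each spot with its signal to noise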
Details: higher = more signal
Value type: composite z-score
Write the number on its own, no unit after it.

// known answers, use as guide
Compound: CO[C@H]1O[C@H](CO)[C@@H](OC(=O)Nc2ccc3c(c2)OCO3)[C@H](OC(=O)c2cc3ccccc3[nH]2)[C@H]1OC(=O)c1cc2ccccc2[nH]1
composite z-score: -0.315

Compound: COCCOC(=O)N1C(=O)[C@@]2(c3cc(C#CC4=CCCCC4)ccc31)[C@H](C(=O)N1CCCCCCC1)[C@H]1C(=O)O[C@H](c3ccccc3)[C@H](c3ccccc3)N1[C@@H]2c1ccc(O)cc1
composite z-score: -0.0901

Compound: O=C1NC(=O)C2C1C=CC(C(O)CCc1ccccc1)N2Nc1ccc(Cl)cc1Cl (configuration not stated)
composite z-score: 1.04

Compound: CCCCCCc1nc(C2CC2)cc2c1[Si](C(C)C)(C(C)C)O[C@H]2c1ccccc1
composite z-score: -0.422

Compound: COC(=O)[C@@]1(Cc2ccc(F)cc2)[C@H]2c3cc(C(=O)N4CCCC4)n(CCN4CNCC4=O)c3C[C@H]2CN1C(=O)c1ccccc1
composite z-score: -0.158

Query: Complete the entry with composite z-score for CC(CO)N1C(=O)[C@@H]2[C@H]3C(=O)OCC=C[C@H]3OC23C=CCN(C(C)(C)C)C(=O)[C@@H]13 (some centres not stated)
Reply: -0.158

Query: Complete the entry with composite z-score for [N-]=[N+]=NCc1ccccc1[C@@H]1OC(c2ccc(OCCCO)cc2)=N[C@]1(CCS(=O)(=O)c1ccccc1)C(=O)NCC(O)CO (some centres not stated)
Reply: 0.975

----------
// values below are reported composite z-score
Molecular target: Calmodulin-1 (Homo sapiens) (UniProt P0DP23)
Assay: CALM1 binders on microarrays, EGTA buffer, profiling panel, biochemical, small-molecule microarray, Cy5-labelled CALM1 (AID 1111);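 note: labelled calmodulin applied in Tris saline Tween buffer holding calcium plus EGTA and DTT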
Details: Cy5-CALM1 binding fluorescence, higher = more signal
Write the number on its own, no unit after it.

Compound: CCOC(=O)c1ccc(NC(=O)O[C@H]2[C@H](OC(=O)Nc3ccc4c(c3)OCO4)[C@H](OC(=O)Nc3ccc4c(c3)OCO4)[C@@H](OC)O[C@@H]2CO)cc1
composite z-score: 1.41
--
Compound: C=C(C)C1CCC(C(O)C2C=CC3C(=O)N(C)C(=O)C3N2N2CCCCC2)CC1 (configuration not stated)
composite z-score: 0.949
--
Compound: CC(C)[Si](C#C[Si](C(C)C)(C(C)C)C(C)C)(O[C@H](C)c1cn([C@H](CO)Cc2ccccc2)nn1)C(C)C
composite z-score: -0.0641
--
Compound: NC(=O)NCC#Cc1ccc2c(c1)[C@]1(C(=O)N2)[C@H](C(=O)NC[C@H](O)c2ccccc2)[C@H]2C(=O)O[C@H](c3ccccc3)[C@H](c3ccccc3)N2[C@@H]1c1ccc(OCCO)cc1
composite z-score: 0.616
--
Compound: COc1ccc(CN(C2=CC[C@@]3(C(N)=O)C(=O)C(Cl)=C(Cl)C(=O)[C@@]3(C#N)C2)S(=O)(=O)c2ccc(Br)cc2)cc1
composite z-score: 1.1
--
Compound: O=C1OCC=C[C@H]2OC34C=CCN(c5ccc(Cl)cc5)C(=O)[C@H]3N(CCO)C(=O)[C@@H]4[C@@H]12 (some centres not stated)
composite z-score: -0.577

Here is another compound to look at.
Query: Complete the entry with composite z-score for CC(C)N1C(=O)C[C@@](C(=O)NCCCN(C)C)(c2ccc([N+](=O)[O-])cc2)[C@H]1c1ccc(CO)cc1
Reply: -0.194
